// provenance: paper PMC12136037

biological target: ~100 representative kinases (Homo sapiens, UniProt Q96SB4); construct: Recombinant protein kinase domains with a concentration of 2 μM; assay: DSF 100 kinase selectivity screen; format: binding; conditions: Protein SRPK1; DSF; average of three replicates;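 further: compound tested at 20 µM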
Sequence (Q96SB4 whole entry, the tested form may be a part): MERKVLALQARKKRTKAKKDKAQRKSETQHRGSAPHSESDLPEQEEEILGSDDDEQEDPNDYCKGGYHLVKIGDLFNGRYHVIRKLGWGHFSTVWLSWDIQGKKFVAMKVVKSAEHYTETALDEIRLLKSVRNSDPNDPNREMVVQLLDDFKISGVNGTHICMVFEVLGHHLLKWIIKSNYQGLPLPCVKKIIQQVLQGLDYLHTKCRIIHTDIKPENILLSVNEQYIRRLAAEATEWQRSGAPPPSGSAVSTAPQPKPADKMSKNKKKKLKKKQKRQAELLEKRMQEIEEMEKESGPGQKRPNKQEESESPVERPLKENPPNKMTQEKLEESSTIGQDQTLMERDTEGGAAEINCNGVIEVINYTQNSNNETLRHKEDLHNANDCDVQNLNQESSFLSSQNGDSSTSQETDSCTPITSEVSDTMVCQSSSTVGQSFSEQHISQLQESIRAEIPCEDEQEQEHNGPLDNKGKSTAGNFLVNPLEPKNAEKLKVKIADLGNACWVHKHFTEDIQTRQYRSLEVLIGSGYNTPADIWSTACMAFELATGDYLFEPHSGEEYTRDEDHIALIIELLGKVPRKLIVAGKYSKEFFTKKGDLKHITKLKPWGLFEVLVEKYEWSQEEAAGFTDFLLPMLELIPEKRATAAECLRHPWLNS
We use 8 K as the dividing line for dTm: on or above the line is 1, below is 0.

Use these answered entries as a reference point.
- Cc1ccc(C(=O)Nc2ccc(CN3CCN(C)CC3)c(C(F)(F)F)c2)cc1C#Cc1c[nH]c2ncnc(N3CCOCC3)c12 [Compound 1]: 1
- Cn1cc(-c2c[nH]c3ncnc(N4CCOCC4)c23)cc1C#N [PFE-360]: 0
- O=C(Nc1cccc(-c2c[nH]c3ncnc(N4CCOCC4)c23)c1)C1(C(=O)Nc2ccc(F)c(Br)c2F)CC1 [Compound 26]: 0
- O=C(Nc1ccc(F)cc1)C1(C(=O)Nc2cccc(-c3c[nH]c4ncnc(N5CCOCC5)c34)c2)CC1 [Compound 2]: 1
- Cc1ccc(-n2nc(C(C)(C)C)cc2NC(=O)Nc2cccc(-c3c[nH]c4ncnc(N5CCOCC5)c34)c2)cc1 [Compound 29]: 1

Pending compound:
### Prompt Given the entry CCNc1nc(Nc2cc(F)c(C(=O)N3CCOCC3)cc2OC)ncc1C(F)(F)F [GNE-7915] , answer whether its dTm meets or surpasses 8 K.
### Response 0

---

biological target: ~100 representative kinases (Homo sapiens, UniProt P22830); construct: Recombinant protein kinase domains with a concentration of 2 μM; assay: DSF 100 kinase selectivity screen; assay type: binding; settings: protein FECH; average of three replicates;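 further: compound tested at 20 µM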
Sequence (P22830 55-423): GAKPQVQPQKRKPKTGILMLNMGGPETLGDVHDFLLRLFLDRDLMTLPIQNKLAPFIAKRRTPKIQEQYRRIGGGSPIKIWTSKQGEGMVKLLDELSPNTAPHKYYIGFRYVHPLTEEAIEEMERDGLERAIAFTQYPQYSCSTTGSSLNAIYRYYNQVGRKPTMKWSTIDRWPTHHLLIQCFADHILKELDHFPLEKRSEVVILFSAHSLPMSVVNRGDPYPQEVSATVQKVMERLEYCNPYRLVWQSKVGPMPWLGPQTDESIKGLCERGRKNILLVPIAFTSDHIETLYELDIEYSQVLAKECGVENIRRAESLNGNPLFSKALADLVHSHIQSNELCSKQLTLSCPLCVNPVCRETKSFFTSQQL
Reported Property: dTm (K)
Express your answer in K, writing the number without its unit.

A selection of reference data follows.
* O=C(Nc1cccc(-c2c[nH]c3ncnc(N4CCOCC4)c23)c1)c1cccn(-c2ccc(F)cc2)c1=O | 2.76
* O=C(Nc1cccc(-c2c[nH]c3ncnc(N4CCOCC4)c23)c1)C1(C(=O)Nc2ccc(F)c(Br)c2F)CC1 | 0.09
* O=C(Nc1ccccc1)C1(C(=O)Nc2cccc(-c3c[nH]c4ncnc(N5CCOCC5)c34)c2)CC1 | 0.29
* O=C(Nc1cccc(-c2c[nH]c3ncnc(N4CCOCC4)c23)c1)C1(C(=O)Nc2ccc(F)c(Br)c2)CC1 | -5.01
* O=C(Nc1cccc(-c2c[nH]c3ncnc(N4CCOCC4)c23)c1)C1(C(=O)Nc2cccc3c2CCC3)CC1 | -8.36
* O=C(Nc1cccc(-c2c[nH]c3ncnc(N4CCOCC4)c23)c1)C1(C(=O)Nc2ccc(F)c(F)c2)CC1 | 1.70
* COc1cc(S(C)(=O)=O)ccc1Nc1nc(N(C)C)c2c(Cl)c[nH]c2n1 | -0.93
* CNC(=O)c1cc(Oc2ccc(NC(=O)Nc3cc(C(C)(C)C)nn3-c3ccc4ncccc4c3)c(F)c2)ccn1 [Rebastinib, reference compound] | -5.98
* Cc1ccc(-n2nc(C(C)(C)C)cc2NC(=O)Nc2cccc(-c3c[nH]c4nc(Cl)nc(N5CCOCC5)c34)c2)cc1 | -11.52
* Cc1ccc(NC(=O)C2(C(=O)Nc3cccc(-c4c[nH]c5ncnc(N6CCOCC6)c45)c3)CC2)cc1 | 0.67

### Prompt Consider the compound shown here: O=C(Nc1ccc(F)cc1)C1(C(=O)Nc2cccc(-c3c[nH]c4ncnc(N5CCOCC5)c34)c2)CC1 What is its recorded dTm?
### Response -0.03

### Prompt Consider the compound shown here: CC(=O)N1CCN(c2nc(Cl)nc3[nH]cc(-c4cccc(NC(=O)Nc5cc(C(C)(C)C)nn5-c5ccc(C)cc5)c4)c23)CC1 What is its recorded dTm?
### Response -9.46

---

Each entry below carries its recorded dTm.
molecular target: ~100 representative kinases (Homo sapiens, UniProt P54753); construct: Recombinant protein kinase domains with a concentration of 2 μM; test: DSF 100 kinase selectivity screen; type: binding; conditions: Protein EPHB3A; average of three replicates;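 further: compound tested at 20 µM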
Sequence (P54753 34-998): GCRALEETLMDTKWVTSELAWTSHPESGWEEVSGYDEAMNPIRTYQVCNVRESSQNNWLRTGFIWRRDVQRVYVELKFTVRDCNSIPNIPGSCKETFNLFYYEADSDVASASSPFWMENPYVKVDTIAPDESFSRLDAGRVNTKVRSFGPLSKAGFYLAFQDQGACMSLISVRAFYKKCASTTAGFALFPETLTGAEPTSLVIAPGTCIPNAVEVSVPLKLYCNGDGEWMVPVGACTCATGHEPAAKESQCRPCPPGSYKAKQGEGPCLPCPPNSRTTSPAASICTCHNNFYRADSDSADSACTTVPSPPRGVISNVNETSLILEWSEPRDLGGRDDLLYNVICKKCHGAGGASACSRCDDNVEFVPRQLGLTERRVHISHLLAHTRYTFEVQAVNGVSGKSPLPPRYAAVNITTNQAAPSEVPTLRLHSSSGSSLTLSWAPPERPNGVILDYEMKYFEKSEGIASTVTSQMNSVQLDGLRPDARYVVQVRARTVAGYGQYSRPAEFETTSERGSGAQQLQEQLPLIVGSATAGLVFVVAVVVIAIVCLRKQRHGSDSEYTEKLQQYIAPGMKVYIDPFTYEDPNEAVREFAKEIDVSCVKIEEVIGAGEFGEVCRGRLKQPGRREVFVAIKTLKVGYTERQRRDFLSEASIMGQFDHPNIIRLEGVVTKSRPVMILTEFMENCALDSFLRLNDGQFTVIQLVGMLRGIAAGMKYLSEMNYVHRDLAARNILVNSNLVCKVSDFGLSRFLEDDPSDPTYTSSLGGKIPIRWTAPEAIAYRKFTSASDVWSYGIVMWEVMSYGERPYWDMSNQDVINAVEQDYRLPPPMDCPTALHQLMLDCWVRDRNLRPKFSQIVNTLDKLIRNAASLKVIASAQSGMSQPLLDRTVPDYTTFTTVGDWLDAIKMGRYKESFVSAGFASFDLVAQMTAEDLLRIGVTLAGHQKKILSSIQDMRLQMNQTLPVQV
Express your answer in K, writing the number without its unit.

A selection of reference data follows.
- O=C(Nc1cccc(-c2c[nH]c3ncnc(N4CCOCC4)c23)c1)C1(C(=O)Nc2ccc(F)c(F)c2)CC1: 1.94
- O=C(Nc1cc(F)cc(Br)c1)C1(C(=O)Nc2cccc(-c3c[nH]c4ncnc(N5CCOCC5)c34)c2)CC1: -2.17
- CCNc1nc(Nc2cc(F)c(C(=O)N3CCOCC3)cc2OC)ncc1C(F)(F)F: 0.08

### Prompt Consider the compound shown here: C[C@@H]1CN(c2cc(-c3n[nH]c4ccc(OC5(C)CC5)cc34)ncn2)C[C@H](C)O1 What is its recorded dTm?
### Response 0.06

---

target: ~100 representative kinases (Homo sapiens); construct: Recombinant protein kinase domains with a concentration of 2 μM; experiment: DSF 100 kinase selectivity screen; type: binding; conditions: Protein BRAF; average of three replicates;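 further: compound tested at 20 µM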
We use 8 K as the dividing line for dTm: on or above the line is true (1), below is false (0).

### Prompt Given the entry CC(=O)N1CCN(c2nc(Cl)nc3[nH]cc(-c4cccc(NC(=O)Nc5cc(C(C)(C)C)nn5-c5ccc(C)cc5)c4)c23)CC1 , answer whether its dTm meets or surpasses 8 K.
### Response false (0)

### Prompt Given the entry O=C(Nc1cccc(-c2c[nH]c3ncnc(N4CCOCC4)c23)c1)C1(C(=O)Nc2cccc3c2CCC3)CC1 , answer whether its dTm meets or surpasses 8 K.
### Response true (1)

### Prompt Given the entry COc1cc(S(C)(=O)=O)ccc1Nc1nc(N(C)C)c2c(Cl)c[nH]c2n1 , answer whether its dTm meets or surpasses 8 K.
### Response false (0)

### Prompt Given the entry O=C(Nc1cc(F)cc(Br)c1)C1(C(=O)Nc2cccc(-c3c[nH]c4ncnc(N5CCOCC5)c34)c2)CC1 , answer whether its dTm meets or surpasses 8 K.
### Response false (0)

### Prompt Given the entry Cc1ccc(-n2nc(C(C)(C)C)cc2NC(=O)Nc2cccc(-c3c[nH]c4nc(Cl)nc(N5CCOCC5)c34)c2)cc1 , answer whether its dTm meets or surpasses 8 K.
### Response true (1)

### Prompt Given the entry CC(C)(C)c1cc(NC(=O)Nc2cccc(-c3c[nH]c4ncnc(N5CCOCC5)c34)c2)n(-c2ccc3ncccc3c2)n1 , answer whether its dTm meets or surpasses 8 K.
### Response true (1)

---

molecular target: ~100 representative kinases (Homo sapiens, UniProt P22830); construct: Recombinant protein kinase domains with a concentration of 2 μM; assay: DSF 100 kinase selectivity screen; type: binding; conditions: protein FECH; average of three replicates;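 further: compound tested at 20 µM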
Reported Property: dTm (K)
Express your answer in K, writing the number without its unit.

* COc1cc2c(Oc3ccc(NC(=O)C4(C(=O)Nc5ccc(F)cc5)CC4)cc3F)ccnc2cc1OCCCN1CCOCC1 [Foretinib, reference compound] | -11.10
* O=C(Nc1ccc(Cl)cc1)C1(C(=O)Nc2cccc(-c3c[nH]c4ncnc(N5CCOCC5)c34)c2)CC1 [Compound 13] | -6.06
* COc1ccc(NC(=O)C2(C(=O)Nc3cccc(-c4c[nH]c5ncnc(N6CCOCC6)c45)c3)CC2)cc1 [Compound 16] | 0.0636

Okay, now this compound:
### Prompt Consider the compound shown here: CCSc1nc(NC)c2c(-c3cccc(NC(=O)Nc4cc(C(C)(C)C)nn4-c4ccc(C)cc4)c3)c[nH]c2n1 [Compound 32] What is its recorded dTm?
### Response -4.54

---

biological target: ~100 representative kinases (Homo sapiens, UniProt O00444); construct: Recombinant protein kinase domains with a concentration of 2 μM; assay: DSF 100 kinase selectivity screen; type: binding; settings: protein PLK4; average of three replicates;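 further: compound tested at 20 µM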
Sequence (O00444 whole entry, the tested form may be a part): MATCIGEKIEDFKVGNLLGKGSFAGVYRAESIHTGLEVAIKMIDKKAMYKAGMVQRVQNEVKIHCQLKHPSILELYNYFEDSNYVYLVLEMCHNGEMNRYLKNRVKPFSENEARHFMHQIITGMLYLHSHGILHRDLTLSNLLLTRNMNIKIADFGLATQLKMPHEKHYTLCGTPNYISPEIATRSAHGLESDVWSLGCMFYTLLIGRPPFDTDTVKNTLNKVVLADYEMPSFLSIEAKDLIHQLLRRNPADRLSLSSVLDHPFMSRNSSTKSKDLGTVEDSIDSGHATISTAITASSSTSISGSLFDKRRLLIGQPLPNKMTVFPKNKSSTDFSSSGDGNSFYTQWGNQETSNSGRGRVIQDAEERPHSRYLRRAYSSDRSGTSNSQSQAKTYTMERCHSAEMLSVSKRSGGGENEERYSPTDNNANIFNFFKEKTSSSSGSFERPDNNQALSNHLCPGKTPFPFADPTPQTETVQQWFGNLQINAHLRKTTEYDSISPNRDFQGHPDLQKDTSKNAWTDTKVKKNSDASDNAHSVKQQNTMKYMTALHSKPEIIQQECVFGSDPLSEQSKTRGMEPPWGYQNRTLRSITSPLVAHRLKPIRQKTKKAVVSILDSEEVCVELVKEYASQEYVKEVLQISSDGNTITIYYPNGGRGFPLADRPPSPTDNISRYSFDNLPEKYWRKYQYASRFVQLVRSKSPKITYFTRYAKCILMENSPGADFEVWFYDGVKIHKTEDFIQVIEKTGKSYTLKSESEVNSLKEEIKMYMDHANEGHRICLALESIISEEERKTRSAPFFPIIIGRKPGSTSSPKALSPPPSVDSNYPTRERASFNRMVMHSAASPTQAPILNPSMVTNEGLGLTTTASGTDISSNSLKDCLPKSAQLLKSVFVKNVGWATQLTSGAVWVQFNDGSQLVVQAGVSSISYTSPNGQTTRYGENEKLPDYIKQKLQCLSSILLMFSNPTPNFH
Reported Property: dTm

• O=C(Nc1ccccc1)C1(C(=O)Nc2cccc(-c3c[nH]c4ncnc(N5CCOCC5)c34)c2)CC1 = 6.79 K
• O=C(Nc1cccc(-c2c[nH]c3ncnc(N4CCOCC4)c23)c1)C1(C(=O)Nc2ccc(F)cc2F)CC1 = 7.20 K

### Prompt Consider the compound shown here: Cc1cc(F)ccc1NC(=O)C1(C(=O)Nc2cccc(-c3c[nH]c4ncnc(N5CCOCC5)c34)c2)CC1 What is its recorded dTm?
### Response 7.17 K

---

biological target: ~100 representative kinases (Homo sapiens, UniProt Q8TF76); construct: Recombinant protein kinase domains with a concentration of 2 μM; experiment: DSF 100 kinase selectivity screen; type: binding; conditions: protein GSG2; average of three replicates;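 further: compound tested at 20 µM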
Sequence (Q8TF76 whole entry, the tested form may be a part): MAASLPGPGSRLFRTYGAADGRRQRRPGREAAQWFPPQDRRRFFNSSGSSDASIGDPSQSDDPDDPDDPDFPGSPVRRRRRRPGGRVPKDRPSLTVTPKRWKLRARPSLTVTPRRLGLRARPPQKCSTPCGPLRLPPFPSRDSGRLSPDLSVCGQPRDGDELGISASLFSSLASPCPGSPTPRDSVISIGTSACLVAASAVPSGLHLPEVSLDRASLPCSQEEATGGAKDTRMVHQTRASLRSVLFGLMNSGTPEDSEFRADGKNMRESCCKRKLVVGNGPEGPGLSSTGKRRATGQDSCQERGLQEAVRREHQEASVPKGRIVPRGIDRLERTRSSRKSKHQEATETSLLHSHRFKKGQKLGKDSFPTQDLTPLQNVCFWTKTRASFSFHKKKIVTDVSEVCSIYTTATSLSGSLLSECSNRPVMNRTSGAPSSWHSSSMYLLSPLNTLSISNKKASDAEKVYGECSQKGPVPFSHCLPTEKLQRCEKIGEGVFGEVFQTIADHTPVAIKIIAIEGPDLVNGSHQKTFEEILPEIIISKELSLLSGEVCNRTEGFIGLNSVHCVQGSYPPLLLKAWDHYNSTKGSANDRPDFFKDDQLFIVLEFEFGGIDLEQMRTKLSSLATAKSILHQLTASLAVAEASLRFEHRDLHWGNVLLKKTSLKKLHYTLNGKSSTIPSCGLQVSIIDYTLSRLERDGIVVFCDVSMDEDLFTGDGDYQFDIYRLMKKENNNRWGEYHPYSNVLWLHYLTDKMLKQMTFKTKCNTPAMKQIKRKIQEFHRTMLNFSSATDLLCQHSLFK
Criterion: dTm strictly less than -0.7 K. Met: Condition met. Not met: Condition not met.

Use these answered entries as a reference point.
* O=C(Nc1cccc(-c2c[nH]c3ncnc(N4CCOCC4)c23)c1)C1(C(=O)Nc2ccc(F)c(Cl)c2)CC1 | Condition met
* O=C(Nc1cccc(-c2c[nH]c3ncnc(N4CCOCC4)c23)c1)C1(C(=O)Nc2cc(Br)c(F)cc2F)CC1 | Condition met
* Cc1cc(F)ccc1NC(=O)C1(C(=O)Nc2cccc(-c3c[nH]c4ncnc(N5CCOCC5)c34)c2)CC1 | Condition met
* COc1cc(S(C)(=O)=O)ccc1Nc1nc(N(C)C)c2c(Cl)c[nH]c2n1 | Condition not met
* O=C(Nc1cccc(-c2c[nH]c3ncnc(N4CCOCC4)c23)c1)c1cccn(-c2ccc(F)cc2)c1=O | Condition met

### Prompt Is dTm strictly under -0.7 K for the entry Cc1ccc(C(=O)Nc2ccc(CN3CCN(C)CC3)c(C(F)(F)F)c2)cc1C#Cc1c[nH]c2ncnc(N3CCOCC3)c12 ?
### Response Condition not met

### Prompt Is dTm strictly under -0.7 K for the entry O=C(Nc1cccc(-c2c[nH]c3ncnc(N4CCOCC4)c23)c1)C1(C(=O)Nc2ccc(F)c(Br)c2)CC1 ?
### Response Condition met
